- measurementTarget: T1, ZFP SBS#1104 (synthetic)
- T1 chain: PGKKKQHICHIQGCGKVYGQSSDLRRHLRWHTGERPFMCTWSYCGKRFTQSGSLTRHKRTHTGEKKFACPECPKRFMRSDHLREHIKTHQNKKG
- experiment: EMSA
- testSettings: tags: MBP fusion
observable: Kd (nM)

binder | observable | valueObserved
CGGGCAGCT (dsDNA) DNA 1: CGGGCAGCT DNA 2: AGCTGCCCG | Kd | 0.08
